Catalogue of binders with associated koff
experimental-system: T1, mouse IL-2Rα (mouse, UniProt P01590 22-236, limits assumed)
T1 construct: recombinant protein; also called mo IL-2R; mouse IL-2Ra
T1 sequence (looked up): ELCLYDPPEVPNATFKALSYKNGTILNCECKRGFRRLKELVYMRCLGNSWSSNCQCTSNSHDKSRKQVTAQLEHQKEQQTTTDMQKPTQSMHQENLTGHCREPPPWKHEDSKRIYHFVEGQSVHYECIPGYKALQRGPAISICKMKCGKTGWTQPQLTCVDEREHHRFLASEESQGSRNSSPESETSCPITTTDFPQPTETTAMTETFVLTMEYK
experiment: SPR, P.E. on immobilised antigen
value-type: koff (s⁻¹)

1) 4-MP01F04 (VHH, periplasmic extract; also called FJ1427_P035MP01F04) VHH: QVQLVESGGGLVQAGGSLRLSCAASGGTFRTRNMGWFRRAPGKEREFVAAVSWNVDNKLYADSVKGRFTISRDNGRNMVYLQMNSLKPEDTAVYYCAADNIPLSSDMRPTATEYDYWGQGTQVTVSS ... 0.256
2) 11-MP05H04 (VHH, periplasmic extract; also called FJ1427_P035MP05H04) VHH: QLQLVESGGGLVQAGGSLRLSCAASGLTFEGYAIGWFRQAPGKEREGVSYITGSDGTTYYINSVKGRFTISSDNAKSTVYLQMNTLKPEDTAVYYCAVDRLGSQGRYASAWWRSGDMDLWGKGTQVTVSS ... 0.00163
